Test: Effects on CNS: cardiazole (CZ) induced convulsions
Conditions: mouse, in vivo, po
ASSAY_METRIC: ED50 (µmol/kg)
I only need the number, in µmol/kg, no unit after it.

So what's the measured ED50 for this one? Cn1c(=O)c2[nH]cnc2n(C)c1=O [THEOPHYLLINE, 1.3-dimethylxanthine, reference compound]
150

====

Please provide measured LD50 at 240 h for the entries that follow.
Assay: Acute toxicity (oral LD50)
Set-up: species or system male Swiss mice
Settings: in vivo, mouse, deaths in ten days, Litchfield and Wilcoxon, limits in parentheses, max dose generally 500 mg/Kg, read-out: DL/50 (mouse os)

So what's the measured LD50 at 240 h for this one? CCC(C)Cn1c(=O)[nH]c(=O)c2nn(CCN(CC)CC)nc21 (stereo not shown) [MX82109]
> 1550 µmol/kg

So what's the measured LD50 at 240 h for this one? CCC(C)Cn1c(=O)[nH]c(=O)c2c1nnn2CCN(CC)CC (stereo not shown) [MX82108]
> 1550 µmol/kg

So what's the measured LD50 at 240 h for this one? CCCn1c(=O)c2c(nnn2CCN(C)C)n(CC(C)CC)c1=O (stereo not shown) [MX8271]
> 1480 µmol/kg

So what's the measured LD50 at 240 h for this one? CCCn1c(=O)c2nn(CCN(C)C)nc2n(CC(C)CC)c1=O (stereo not shown) [MX8272]
1370 µmol/kg

So what's the measured LD50 at 240 h for this one? CCCn1c(=O)c2nn(CCN3CCOCC3)nc2n(-c2ccccc2)c1=O [MX82106]
> 1300 µmol/kg

So what's the measured LD50 at 240 h for this one? CCCn1c(=O)c2c(nnn2CCN2CCOCC2)n(-c2ccccc2)c1=O [MX82105]
> 1300 µmol/kg

So what's the measured LD50 at 240 h for this one? CCCn1c(=O)c2nn(CCN(CC)CC)nc2n(-c2ccccc2)c1=O [MX8258]
> 1350 µmol/kg

So what's the measured LD50 at 240 h for this one? CCCn1c(=O)c2c(nnn2CCN(CC)CC)n(-c2ccccc2)c1=O [MX8257]
> 1350 µmol/kg

So what's the measured LD50 at 240 h for this one? CCCn1c(=O)c2c(nnn2CCN2CCCCC2)n(-c2ccccc2)c1=O [MX82103]
910 µmol/kg

So what's the measured LD50 at 240 h for this one? CCCn1c(=O)c2nn(CCN3CCCCC3)nc2n(-c2ccccc2)c1=O [MX82104]
1310 µmol/kg

====

Assay: Effects on CNS: sleeping time following chlordiazepoxide (CDO) treatment
Details: mouse, in vivo, po
ASSAY_METRIC: ED50 (µmol/kg)
I only need the number, in µmol/kg, no unit after it.

So what's the measured ED50 for this one? Cn1c(=O)c2[nH]cnc2n(C)c1=O [THEOPHYLLINE, 1.3-dimethylxanthine, reference compound]
75
